Field: IC50. Provide a value for each of the compounds that follow.
biological target: KRAS G12V (Homo sapiens, UniProt P01116+P62937, G12V); test: Ras-Raf disruption / FRET / MOA assay (BRAF RBD); format: biochemical; conditions: Ras-Raf disruption, with Cyclophilin A; read-out: KRAS G12V FRET data IC50
Sequence (P01116 1-169 isoform P01116-2 G12V limits assumed): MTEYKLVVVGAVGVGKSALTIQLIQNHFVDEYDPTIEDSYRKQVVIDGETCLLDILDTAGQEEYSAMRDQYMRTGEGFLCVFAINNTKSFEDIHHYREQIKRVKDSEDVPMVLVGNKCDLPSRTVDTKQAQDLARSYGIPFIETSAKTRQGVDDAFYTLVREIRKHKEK
Sequence (P62937 whole entry): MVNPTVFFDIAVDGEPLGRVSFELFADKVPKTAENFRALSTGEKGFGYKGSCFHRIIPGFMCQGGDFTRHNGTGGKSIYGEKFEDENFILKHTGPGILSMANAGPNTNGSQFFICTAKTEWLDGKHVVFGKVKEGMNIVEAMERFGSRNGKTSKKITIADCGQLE

Reported IC50 of CCn1c(-c2cccnc2[C@H](C)OC)c2c3cc(ccc31)-c1cc(O)cc(c1)C[C@H](NC(=O)[C@H](C(C)C)N1CC[C@]3(CCN(C(=O)[C@H]4CN4)C3)C1=O)C(=O)N1CCC[C@H](N1)C(=O)OCC(C)(C)C2 : 10 to 100 nM

The compound listed as CCn1c(-c2cccnc2[C@H](C)OC)c2c3cc(ccc31)-c1cc(O)cc(c1)C[C@H](NC(=O)[C@H](C(C)C)N1CCC3(CN(C(=O)[C@@H]4CN4)C3)C1=O)C(=O)N1CCC[C@H](N1)C(=O)OCC(C)(C)C2 shows IC50 equal to 100 to 1000 nM

Value of IC50 reported for the compound CCn1c(-c2cccnc2[C@H](C)OC)c2c3cc(ccc31)-c1cc(O)cc(c1)C[C@H](NC(=O)[C@H](C(C)C)N(C)C(=O)[C@@H]1CCCN(C(=O)[C@@H]3CN3)C1)C(=O)N1CCC[C@H](N1)C(=O)OCC(C)(C)C2 is 100 to 1000 nM

Per the records, this compound ( CCn1c(-c2cccnc2[C@H](C)OC)c2c3cc(ccc31)-c1cc(O)cc(c1)C[C@H](NC(=O)[C@H](C(C)C)N(C)C(=O)c1ccc([C@@H]3CN3)cc1)C(=O)N1CCC[C@H](N1)C(=O)OCC(C)(C)C2 ) has IC50 equal to 100 to 1000 nM

response.value for CCn1c(-c2cccnc2[C@H](C)OC)c2c3cc(ccc31)-c1csc(n1)C[C@H](NC(=O)[C@H](C(C)C)N(C)C(=O)N1CC[C@H](N(C)C(=O)[C@H]3CN3)C1)C(=O)N1CCC[C@H](N1)C(=O)OCC(C)(C)C2 (atropisomer, axis not shown) (field: IC50) = 100 to 1000 nM

Sure, the documented IC50 for CCn1c(-c2cccnc2[C@H](C)OC)c2c3cc(ccc31)-c1cc(O)cc(c1)C[C@H](NC(=O)[C@H](C(C)C)N(C)C(=O)[C@H]1CCN(C(=O)C3(C)CO3)C1)C(=O)N1CCC[C@H](N1)C(=O)OCC(C)(C)C2 (stereo partly shown) is 10 to 100 nM

get_value(item= CCn1c(-c2cccnc2[C@H](C)OC)c2c3cc(ccc31)-c1csc(n1)C[C@H](NC(=O)[C@H](C(C)C)N(C)C(=O)N1CCN(C(=O)[C@@H]3CN3)C[C@H]1C)C(=O)N1CCC[C@H](N1)C(=O)OCC(C)(C)C2 , readout=IC50) returns 10 to 100 nM

Measured IC50, CCn1c(-c2cnccc2COC)c2c3cc(ccc31)-c1cccc(c1)C[C@H](NC(=O)[C@H](C(C)C)N(C)C(=O)CC(C)(C)N=C=Nc1ccc(OC)cc1)C(=O)N1CCC[C@H](N1)C(=O)OCC(C)(C)C2 : > 10000 nM

Entry CCn1c(-c2cccnc2[C@H](C)OC)c2c3cc(ccc31)-c1cc(O)cc(c1)C[C@H](NC(=O)[C@H](C(C)C)N(C)C(=O)[C@H]1CCN(C(=O)[C@H]3CN3)C1)C(=O)N1CCC[C@H](N1)C(=O)OCC(C)(C)C2 (single isomer, unassigned) [Example 43A] , IC50 reported as 10 to 100 nM

Consider CCn1c(-c2cccnc2[C@H](C)OC)c2c3cc(ccc31)-c1cc(O)cc(c1)C[C@H](NC(=O)[C@H](C(C)C)N(C)C(=O)[C@H]1CCN(C(=O)[C@@H]3N[C@@H]3C3CC3)C1)C(=O)N1CCC[C@H](N1)C(=O)OCC(C)(C)C2 (atropisomer, axis not shown) . Its measured IC50 is 100 to 1000 nM

Looking up CCn1c(-c2cccnc2[C@H](C)OC)c2c3cc(ccc31)-c1cccc(c1)C[C@H](NC(=O)[C@H](C(C)C)N(C)C(=O)[C@H]1CC[C@H](N=C=NC34CC(C3)C4)C1)C(=O)N1CCC[C@H](N1)C(=O)OCC(C)(C)C2 , I found its IC50 recorded as 1000 to 10000 nM

Just so you know, measured IC50 for CCn1c(-c2cccnc2[C@H](C)OC)c2c3cc(ccc31)-c1cc(O)cc(c1)C[C@H](NC(=O)[C@H](C(C)C)N(C)C(=O)CN(C)S(=O)(=O)[C@H]1CN1C)C(=O)N1CCC[C@H](N1)C(=O)OCC(C)(C)C2 (single isomer, unassigned) came out at 100 to 1000 nM

Recorded IC50 (compound CCn1c(-c2cccnc2[C@H](C)OC)c2c3cc(ccc31)-c1csc(n1)C[C@H](NC(=O)[C@H](C(C)C)N(C)C(=O)N1CC(N(C)C(=O)[C@H]3CN3)C1)C(=O)N1CCC[C@H](N1)C(=O)OCC(C)(C)C2 ): 100 to 1000 nM

IC50 for CCn1c(-c2cccnc2[C@H](C)OC)c2c3cc(ccc31)-c1cccc(c1)C[C@H](NC(=O)[C@H](C(C)C)N(C)C(=O)[C@H]1CCN(C(=O)[C@H]3CN3)C1)C(=O)N1CCC[C@H](N1)C(=O)OCC(C)(C)C2 is 1000 to 10000 nM

# IC50 (compound: CCn1c(-c2cccnc2[C@H](C)OC)c2c3cc(ccc31)-c1cc(O)cc(c1)C[C@H](NC(=O)[C@H](C(C)C)N(C)C(=O)[C@H]1C[C@H](NC(=O)[C@H]3CN3)C1)C(=O)N1CCC[C@H](N1)C(=O)OCC(C)(C)C2 ) is 10 to 100 nM

IC50 reading for CCn1c(-c2cccnc2[C@H](C)OC)c2c3cc(ccc31)-c1cc(O)cc(c1)C[C@H](NC(=O)[C@H](C(C)C)N(C)C(=O)N1CCN(C(=O)[C@H]3CN3)C(=O)C1)C(=O)N1CCC[C@H](N1)C(=O)OCC(C)(C)C2 : 100 to 1000 nM
